# human JAK1 (a.a. 837-1142) catalytic domain (Homo sapiens): pIC50 values follow
Structures can show the parent of a compound that is named as a salt.
Scale note: pIC50 = -log10(concentration in M).

Illustrative cases are given below, each with its answer.
>  <COMPOUND>
Clc1cnc2nc1NCc1cc(ccc1Br)OCCCc1cccc(c1)N2 [Example 14]

>  <TARGET>
human JAK1 (a.a. 837-1142) catalytic domain (Homo sapiens)

>  <pIC50>
7.00

$$$$
>  <COMPOUND>
Clc1cnc2nc1NCCc1cccc(c1)OCCc1cccc(c1)N2 [Example 9]

>  <TARGET>
human JAK1 (a.a. 837-1142) catalytic domain (Homo sapiens)

>  <pIC50>
7.55

$$$$
>  <COMPOUND>
Clc1cnc2nc1NCc1cccc(c1)OCCOc1cccc(c1)N2 [Example 7, trifluoroacetate]

>  <TARGET>
human JAK1 (a.a. 837-1142) catalytic domain (Homo sapiens)

>  <pIC50>
7.80

$$$$
>  <COMPOUND>
O=S1(=O)Nc2cccc(c2)CNc2nc(ncc2Cl)Nc2cccc1c2 [Example 3, trifluoroacetate]

>  <TARGET>
human JAK1 (a.a. 837-1142) catalytic domain (Homo sapiens)

>  <pIC50>
6.52

$$$$
>  <COMPOUND>
Clc1cnc2nc1NCc1cccc(c1)OCCc1cccc(c1)N2 [Example 2, trifluoroacetate]

>  <TARGET>
human JAK1 (a.a. 837-1142) catalytic domain (Homo sapiens)

>  <pIC50>
7.89

$$$$

So, Nc1ccc2cc1CCc1cncc(c1)Nc1ncc(Cl)c(n1)NC2 [Example 17] ? Its pIC50 was 6.99

So, O=C1Nc2cccc(c2)CNc2nc(ncc2Cl)Nc2cccc1c2 [Example 4, trifluoroacetate] ? Its pIC50 was 7.02

So, C[C@H]1Nc2nc(ncc2Cl)Nc2cccc(c2)COc2cccc1c2 [Example 6, trifluoroacetate] ? Its pIC50 was 6.46

Ref: patent US8765727B2
